Cited source for all entries: patent US20160122426A1

# TARGET_OF_ASSAY: T1, human VEGF (human, UniProt P15692-4 27-191)
# T1 construct: Bought recombinant protein; also called hVEGF; human VEGF-A
# TEST_DETAILS: ELISA and BIAcore
RESULT_TYPE: fold affinity over mother clone F

Qu. I am curious: what fold affinity over mother clone F value has been reported for HF2-14 (antibody, V domains shown) VH: EVQLVESGGGLVQPGGSLRLSCAASHSSIRSHGMQWVRQAPGKGLEYVAGISSDGSWLRQDAAVEGRFTISRDDSKNTAYLQMNSLRAEDTAVYYCARDFSTGYGADSIDAWGQGTLVTVSS VL: DIQMTQSPSSLSASVGDRVTITCSGGSDSAYGYGWYQQKPGKAPKTLIYWDDKRPSGVPSRFSGSRSGTDFTLTISSLQPEDFATYYCGAWEYSGGVGIFGQGTKVEIK ?
Ans. ≥ 10 times

Qu. Entry HF2-6 (antibody, V domains shown) VH: EVQLVESGGGLVQPGGSLRLSCAASRFLLRSHGMQWVRQAPGKGLEYVAGISSDGSWFRVAAAVEGRFTISRDDSKNTAYLQMNSLRAEDTAVYYCARDFSTGYGADSIDAWGQGTLVTVSS VL: DIQMTQSPSSLSASVGDRVTITCSGGSMEPLGYGWYQQKPGKAPKTLIYWDDKRPSGVPSRFSGSRSGTDFTLTISSLQPEDFATYYCGAWEYSGGVGIFGQGTKVEIK please
Ans. ≥ 10 times

Qu. Entry HF2-2 (antibody, V domains shown) VH: EVQLVESGGGLVQPGGSLRLSCAASRFNMRSHGMQWVRQAPGKGLEYVAGISSDGSWERVGAAVEGRFTISRDDSKNTAYLQMNSLRAEDTAVYYCARDFSTGYGADSIDAWGQGTLVTVSS VL: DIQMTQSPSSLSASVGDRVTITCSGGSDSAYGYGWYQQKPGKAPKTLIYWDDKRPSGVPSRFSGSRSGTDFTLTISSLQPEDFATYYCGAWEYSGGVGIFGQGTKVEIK please
Ans. ≥ 10 times
